Where these numbers come from: ChEMBL document CHEMBL4028852

# target under test: Peregrin (Homo sapiens)
# Sequence (P55201 whole entry, the tested form may be a part): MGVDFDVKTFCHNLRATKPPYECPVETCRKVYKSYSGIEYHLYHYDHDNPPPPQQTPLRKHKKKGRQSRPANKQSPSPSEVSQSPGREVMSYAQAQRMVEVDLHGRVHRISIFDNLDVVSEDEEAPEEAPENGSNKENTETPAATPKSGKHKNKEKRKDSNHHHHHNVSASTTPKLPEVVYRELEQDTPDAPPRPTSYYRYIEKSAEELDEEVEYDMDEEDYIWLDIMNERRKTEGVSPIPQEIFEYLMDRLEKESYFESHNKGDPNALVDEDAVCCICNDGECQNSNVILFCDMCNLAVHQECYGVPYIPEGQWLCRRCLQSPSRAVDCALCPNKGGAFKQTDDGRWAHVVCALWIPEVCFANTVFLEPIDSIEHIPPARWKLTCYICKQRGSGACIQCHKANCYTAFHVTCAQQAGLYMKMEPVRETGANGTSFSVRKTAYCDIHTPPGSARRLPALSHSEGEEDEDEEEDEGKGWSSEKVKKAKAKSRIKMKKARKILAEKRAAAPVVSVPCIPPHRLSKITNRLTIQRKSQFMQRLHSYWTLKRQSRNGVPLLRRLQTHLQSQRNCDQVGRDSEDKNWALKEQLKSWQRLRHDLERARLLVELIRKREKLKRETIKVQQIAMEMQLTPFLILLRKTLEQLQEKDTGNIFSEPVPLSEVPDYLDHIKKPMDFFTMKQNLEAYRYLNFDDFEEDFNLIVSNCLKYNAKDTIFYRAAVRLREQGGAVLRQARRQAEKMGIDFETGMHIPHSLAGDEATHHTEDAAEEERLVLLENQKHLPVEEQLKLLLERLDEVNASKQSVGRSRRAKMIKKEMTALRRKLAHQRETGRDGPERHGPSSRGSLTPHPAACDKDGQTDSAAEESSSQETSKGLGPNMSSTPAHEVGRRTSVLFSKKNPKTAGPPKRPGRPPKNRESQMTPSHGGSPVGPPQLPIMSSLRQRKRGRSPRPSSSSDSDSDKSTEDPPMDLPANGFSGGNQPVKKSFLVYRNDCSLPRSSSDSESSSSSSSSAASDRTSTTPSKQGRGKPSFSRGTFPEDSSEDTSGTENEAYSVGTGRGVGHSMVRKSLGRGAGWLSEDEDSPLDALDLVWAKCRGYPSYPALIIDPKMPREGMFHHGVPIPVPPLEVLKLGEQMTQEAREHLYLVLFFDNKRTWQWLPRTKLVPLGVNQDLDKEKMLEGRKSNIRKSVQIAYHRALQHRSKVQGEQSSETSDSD
# label = criterion met if ΔTm >= 4 °C else criterion not met

Test whether the compound COc1ccccc1S(=O)(=O)Nc1ccc2c(c1)cc(C)c(=O)n2C records ΔTm of 4 °C or higher.
criterion met

API: above_or_equal(metric=ΔTm, cutoff=4 °C) for item Cn1c(=O)ccc2cc(S(=O)(=O)Nc3ccc(C#N)cc3)ccc21
criterion not met

Kindly determine if ΔTm recorded for CCS(=O)(=O)Nc1ccc2c(ccc(=O)n2C)c1 is above or exactly 4 °C.
criterion not met

Is reported ΔTm greater than or equal to 4 °C here: COc1cc(C#N)ccc1S(=O)(=O)N(C)c1ccc2c(c1)cc(C)c(=O)n2C
criterion met

Does the compound Cn1c(=O)ccc2cc(NS(=O)(=O)c3ccccc3C#N)ccc21 have recorded ΔTm that is 4 °C or more?
criterion not met

Assess whether reported ΔTm for Cn1c(=O)ccc2cc(S(=O)(=O)Nc3ccccc3)ccc21 sits at 4 °C or higher.
criterion not met

Textbook exercise: given the entry Cn1c(=O)ccc2cc(NS(=O)(=O)c3cccc(C#N)c3)ccc21 , state whether its ΔTm is greater than or equal to 4 °C.
criterion met

Reported ΔTm at or above 4 °C? COc1cc(C#N)ccc1S(=O)(=O)Nc1ccc2c(c1)cc(C)c(=O)n2C
criterion met

Could you please find out whether CN(c1ccc2c(ccc(=O)n2C)c1)S(=O)(=O)c1ccc(C#N)cc1 has ΔTm that meets 4 °C or exceeds it?
criterion not met

Could you please find out whether COc1cc(C#N)ccc1S(=O)(=O)Nc1cc(F)c2c(c1)cc(C)c(=O)n2C has ΔTm that meets 4 °C or exceeds it?
criterion met

API: above_or_equal(metric=ΔTm, cutoff=4 °C) for item COc1cc2c(ccc(=O)n2C)cc1NS(=O)(=O)c1ccc(C#N)cc1
criterion met

I'd appreciate it if you could say whether COc1cc2c(ccc(=O)n2C)cc1NS(=O)(=O)c1ccccc1 has ΔTm at least equal to 4 °C.
criterion met

Reported ΔTm at or above 4 °C? Cc1cc2cc(NS(=O)(=O)c3ccc(C#N)cc3)ccc2n(C)c1=O
criterion met

Entry Cn1c(=O)ccc2cc(NS(C)(=O)=O)ccc21 : is its ΔTm no less than 4 °C?
criterion not met

Decide: is the reported value of ΔTm for CC(C)S(=O)(=O)Nc1ccc2c(ccc(=O)n2C)c1 equal to or greater than 4 °C?
criterion not met

Say whether CCc1cc2cc(NS(=O)(=O)c3ccc(C#N)cc3OC)ccc2n(C)c1=O shows ΔTm of 4 °C or more.
criterion met

----------
# assay protocol: Fraction of drug absorbed in CD1 mouse at 3 mg/kg, po by UPLC-MS/MS analysis
# Type: ADME, organism-based
# condition label: in vivo, read-out: Fabs
quantity measured: Fa (%)
Output spec: scalar in %, unitless text.

Report Fa for COc1cc(C#N)ccc1S(=O)(=O)Nc1ccc2c(c1)cc(C)c(=O)n2C please.
35

----------
# target under test: Peregrin (Homo sapiens)
# assay protocol: Inhibition of human BRPF1 (627 to 740 residues) expressed in Escherichia coli BL21 after 1 hr by BROMOscan assay
quantity measured: IC50 (nM)
Kindly provide the numeric value in nM only, without the unit symbol.

See these solved cases before continuing.
smiles representation	target under test	IC50 (nM)
CC(C)c1cc2cc(NS(=O)(=O)c3ccc(C#N)cc3)ccc2n(C)c1=O	Peregrin (Homo sapiens)	870
COc1cc(C#N)ccc1S(=O)(=O)Nc1ccc2c(c1)cc(C(C)C)c(=O)n2C	Peregrin (Homo sapiens)	170
CCN(c1ccc2c(c1)cc(C)c(=O)n2C)S(=O)(=O)c1ccc(C#N)cc1OC	Peregrin (Homo sapiens)	110
CCc1cc2cc(NS(=O)(=O)c3ccc(C#N)cc3OC)ccc2n(C)c1=O	Peregrin (Homo sapiens)	93
Cn1c(=O)ccc2cc(S(=O)(=O)Nc3ccccc3)ccc21	Peregrin (Homo sapiens)	1000
CCc1cc2cc(NS(=O)(=O)c3ccc(C#N)cc3OC)ccc2n(CC)c1=O	Peregrin (Homo sapiens)	250
COc1cc(C#N)ccc1S(=O)(=O)Nc1cc(F)c2c(c1)cc(C)c(=O)n2C	Peregrin (Homo sapiens)	12
COc1cc(C#N)ccc1S(=O)(=O)N(c1ccc2c(c1)cc(C)c(=O)n2C)C(C)C	Peregrin (Homo sapiens)	160

Look up IC50: COc1cc2c(ccc(=O)n2C)cc1N(C)S(=O)(=O)c1ccc(C#N)cc1
1000

If you can, please state the reported IC50 value of COc1cc(C#N)ccc1S(=O)(=O)Nc1ccc2c(c1)cc(C)c(=O)n2C .
3.1
